Tested on: NCI-H226 lung
Assay: NCI tumour cell line growth inhibition, 48 h
PROPERTY: GI50

Known value: NCI-H226 lung GI50 of the compound `Nc1ccccc1NC(=O)c1ccc(CNC(=O)OCc2cccnc2)cc1` equals 0.604 µM

Known value: NCI-H226 lung GI50 of the compound C=CC(C)c1cccc(C=O)c1O (stereo not drawn) equals > 100 µM

Known value: NCI-H226 lung GI50 of the compound `CC(C)OP(=O)(OC(C)C)c1ncc(-c2ccc(C(F)(F)F)cc2)c(NC2CCCCCC2)n1` equals > 10 µM

Known value: NCI-H226 lung GI50 of the compound `C#C[C@@]1(O)[C@@H](CO)O[C@@H](n2cc(Br)c3c(N)ncnc32)[C@@H]1O` equals 1.28 µM

Known value: NCI-H226 lung GI50 of the compound `COc1cc2c(cc1O)CC[C@@H]1[C@@H]2CC[C@]2(C)[C@@H](OCCCN(C)C)CC[C@@H]12` equals 0.617 µM

Known value: NCI-H226 lung GI50 of the compound N#Cc1cnc(=O)n(C2CC(O)C(CO)O2)c1 (stereo not drawn) equals > 100 µM

Known value: NCI-H226 lung GI50 of the compound CN1C[C@@H](c2ccc(Cl)cc2)[C@]2(NC(=S)N(c3ccc(F)c(Cl)c3)C2=O)[C@@]12C(=O)NC1C=CC(Cl)=C[C@H]12 (stereo partly drawn) equals 1.82 µM

Known value: NCI-H226 lung GI50 of the compound `COc1ccc(OC)c(/C=C/C(=O)N/N=C/c2ccccc2)c1` equals 30.8 µM

---

System: SF-295 CNS
Assay: NCI tumour cell line growth inhibition, 48 h
PROPERTY: TGI

# compound `C#CCCCCC#Cc1ccccc1C(=O)C=[N+]=[N-]` ; its TGI = > 100 µM

# compound `CC(C)N(Cc1c(F)cccc1F)c1ccc(CO)c(Cl)c1` ; its TGI = 2.53 µM

# compound Cc1ccc(C2C3Cc4ccccc4C3=NN2c2ccc(S(=O)(=O)NC(=O)NC3CCCCC3)cc2)cc1 (centres undefined) ; its TGI = 54.2 µM

# compound `NC(=S)Nc1[nH]c(=S)nc2[nH]ccc12` ; its TGI = > 100 µM

# compound `O=C(O)/C=C\C(=O)c1ccc(Cl)cc1` ; its TGI = > 100 µM

# compound CCOC(=O)CO/N=C\C1=CC(=O)C2CC1C2(C)C (centres undefined) ; its TGI = > 100 µM

# compound `OCCCCOC(c1ccccc1)(c1ccccc1)c1ccccc1` ; its TGI = > 100 µM

# compound CCc1ccccc1NC(=O)C1=C(C)NC(C)=C(C(=O)Nc2c(CC)cccc2CC)C1c1ccc2c(c1)OCO2 (centres undefined) ; its TGI = 48.5 µM

# compound `COc1ccc([C@H]2CC(=O)C[C@H](c3ccc(OC)cc3OC)C23C(=O)c2ccccc2C3=O)c(OC)c1` ; its TGI = > 100 µM

---

System: SW-620 colon
Assay: NCI tumour cell line growth inhibition, 48 h
PROPERTY: TGI

# compound `COc1ccc(/C=C/C(=O)c2ccc(Cl)cc2Cl)cc1` ; its TGI = > 100 µM

# compound `CCN(Cc1ccccn1)c1ccc(CO)c(Cl)c1` ; its TGI = > 100 µM

# compound Cc1ccc(C2C3Cc4ccccc4C3=NN2c2ccc(S(=O)(=O)NC(=O)NC3CCCCC3)cc2)cc1 (stereo not drawn) ; its TGI = 40.1 µM

# compound `O=C1NC(=O)C(c2c[nH]c3cc(Br)ccc23)=C1c1cnc[nH]1` ; its TGI = > 100 µM

# compound `C=C(C)c1nc(C#N)c(N)o1` ; its TGI = > 100 µM

# compound O=C(O)C1CCC(=O)N1C(=O)C(Cl)c1ccccc1 (stereo not drawn) ; its TGI = > 100 µM

# compound `Cc1nc2c(o1)C(=Nc1ccccc1)c1ccccc1C2=Nc1ccccc1` ; its TGI = 41.3 µM

# compound `Cc1ccc(-c2nc3cc(N4CCN(C)CC4)c(F)cc3[nH]2)cc1` ; its TGI = > 100 µM

The reported numbers originate from PubChem BioAssay (NCI).
